Reference source: patent US10144715B2

# testedSystem: LXR α LBD protein (Homo sapiens (Human), UniProt Q13133)
# Sequence (Q13133 209-447): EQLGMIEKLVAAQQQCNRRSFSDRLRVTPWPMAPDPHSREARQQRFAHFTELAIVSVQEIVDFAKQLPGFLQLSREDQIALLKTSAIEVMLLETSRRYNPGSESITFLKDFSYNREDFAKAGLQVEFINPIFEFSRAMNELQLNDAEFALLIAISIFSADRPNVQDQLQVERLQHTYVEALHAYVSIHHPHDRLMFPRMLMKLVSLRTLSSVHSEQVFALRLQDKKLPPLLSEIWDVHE
# runDescription: LXR α radioligand binding assay (SPA, competition with [3H]TO901317)
# assaySetup: read-out: LXRα Binding Ki
pKi: −log10 of the molar value.
Binary classification by pKi, with 6 as an inclusive lower bound for rule met; all other cases are rule not met.

Illustrative cases are given below, each with its answer.
Hi team, for CC(C)[C@@H]1CN(c2ccc(CO)c(S(C)(=O)=O)c2)CCN1c1nc(C(F)(F)F)c(C(C)(C)O)s1 , is the recorded pKi at or above 6?
rule met

Hi team, for CC(C)[C@H]1CN(c2cccc(S(C)(=O)=O)c2)CCN1C(=O)OC(C)(C)C , is the recorded pKi at or above 6?
rule not met

Hi team, for CC(C)[C@@H]1CN(c2ccc(F)c(S(C)(=O)=O)c2)CCN1c1nc2ccccc2o1 , is the recorded pKi at or above 6?
rule met

Next:
Hi team, for COC(c1cnc(N2CCN(c3ccc(F)c(S(C)(=O)=O)c3)C[C@H]2C(C)C)nc1)C(F)(F)F (stereo partly shown) , is the recorded pKi at or above 6?
rule met

Hi team, for NS(=O)(=O)c1cccc(N2CCN(C[C@H]3CC[C@H](C(F)F)CC3)[C@H](c3ccccc3)C2)c1 (single isomer, unassigned) , is the recorded pKi at or above 6?
rule not met

Hi team, for CCCCN(C)C(=O)c1cnc(N2CCN(c3ccc(F)c(S(C)(=O)=O)c3)C[C@H]2C(C)C)nc1C(F)(F)F , is the recorded pKi at or above 6?
rule met

====

# testedSystem: Gal4 DNA binding domain fused to the LBD of LXRα in HEK293 cells (Homo sapiens (Human), UniProt Q13133)
# Sequence (Q13133 209-447): as above
# runDescription: LXR luciferase transcriptional reporter gene assay, agonist mode, LXRα
# Format: cell-based
Reported Cell LXRα efficacy values for the following compounds.

The value of Cell LXRα efficacy measured for the compound COC(=O)c1cc(CN2CCN(c3cccc(S(C)(=O)=O)c3)CC2c2ccccc2)ccc1C(F)(F)F (stereo not shown) turned out to be 11251 (20) %

The value of Cell LXRα efficacy measured for the compound CO[C@H]1CC[C@@H](CN2CCN(c3ccc(CO)c(S(C)(=O)=O)c3)C[C@@H]2C(C)C)CC1 (single isomer, unassigned) turned out to be 154 (80) %

The value of Cell LXRα efficacy measured for the compound CC(C)[C@@H]1CN(c2ccc(F)c(S(N)(=O)=O)c2)CCN1c1ccc(C(F)(F)F)cn1 turned out to be 591 (104) %

====

# testedSystem: Gal4 DNA binding domain fused to the LBD of LXRα in HEK293 cells (Homo sapiens (Human))
# runDescription: LXR luciferase transcriptional reporter gene assay, agonist mode, LXRα
# Format: cell-based
# assaySetup: Biological Test Example 2, agonist mode; read-out: Cell LXRα EC50
Reported EC50 values for the following compounds.
The answer is to be given in µM; state only the numeric part.

Here CC(C)[C@H]1CN(c2ccc(CO)c(S(C)(=O)=O)c2)CCN1C[C@@H]1CCN(CC(F)(F)F)C1 (single isomer, unassigned) was tested on Gal4 DNA binding domain fused to the LBD of LXRα in HEK293 cells (Homo sapiens (Human)), and its EC50 came to 1.19

Please turn your attention to the following entry.
Here CC(C)[C@H]1CN(c2ccc(CO)c(S(C)(=O)=O)c2)CCN1CC1CCN(CC(F)(F)F)CC1 was tested on Gal4 DNA binding domain fused to the LBD of LXRα in HEK293 cells (Homo sapiens (Human)), and its EC50 came to 0.386
